# credit: patent US20240409617A1

Can you tell me Response for the items I'm about to list?
target: P.1 Spike (SARS-CoV2)

-- ask Request the reported Response associated with S1-RBD-R3-T1-F5 (Ab2-7) scFv-Fc (scFv, V domains shown) VH: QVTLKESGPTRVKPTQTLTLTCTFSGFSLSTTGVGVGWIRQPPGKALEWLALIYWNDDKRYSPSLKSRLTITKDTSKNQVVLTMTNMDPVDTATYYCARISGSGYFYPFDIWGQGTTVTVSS VL: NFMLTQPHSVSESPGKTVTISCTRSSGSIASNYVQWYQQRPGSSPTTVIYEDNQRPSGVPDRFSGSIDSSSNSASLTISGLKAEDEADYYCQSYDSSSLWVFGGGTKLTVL
-- reply 0.152

-- ask Request the reported Response associated with Ab_17 scFv-Fc (scFv, V domains shown) VH: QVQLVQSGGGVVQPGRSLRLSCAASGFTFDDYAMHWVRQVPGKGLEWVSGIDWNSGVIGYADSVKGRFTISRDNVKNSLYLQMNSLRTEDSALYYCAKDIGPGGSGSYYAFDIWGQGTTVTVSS VL: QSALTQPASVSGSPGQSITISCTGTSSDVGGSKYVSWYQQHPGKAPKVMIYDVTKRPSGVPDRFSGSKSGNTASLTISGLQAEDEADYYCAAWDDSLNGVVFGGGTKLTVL
-- reply 0.177

-- ask Request the reported Response associated with Ab_23 scFv-Fc (scFv, V domains shown) VH: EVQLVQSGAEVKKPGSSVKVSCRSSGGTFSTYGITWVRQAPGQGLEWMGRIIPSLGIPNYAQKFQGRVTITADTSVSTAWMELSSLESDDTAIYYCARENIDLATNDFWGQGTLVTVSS VL: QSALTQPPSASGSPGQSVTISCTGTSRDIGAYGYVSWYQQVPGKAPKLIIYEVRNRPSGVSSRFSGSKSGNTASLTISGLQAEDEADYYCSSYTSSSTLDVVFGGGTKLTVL
-- reply 0.123
